# Test system: SK-MEL-28 melanoma
# assay comment: NCI-60 one-dose screen, 48 h (100 = growth as untreated, 0 = no growth, -100 = all killed)
# condition context: 10 µM unless noted
Compounds without any hit were thinned out: in the full panel of roughly 83,000, 20% have a hit. Calls of active or inactive are those of the source. Rule for the calls: active = growth percent below 10; inactive = the rest.
value type: growth

molecule	experimental result
O=C1OC2(c3ccccc31)c1ccccc1-c1ccccc12	74.5% (inactive)
CC1=C([Se]CC(OC(=O)[C@@H](CSSC(C)(C)C)NC(=O)C(C)(C)C)C(=O)NCCCCCC(=O)OCc2ccccc2)C(=O)c2ccccc2C1=O (some centres undefined)	-27.3% (active)
Cc1cc2c(cc1C)[n+](Cc1ccc3ccccc3n1)cn2Cc1ccc2ccccc2n1	10.2% (inactive)
CCN(CC)c1ccc(C(=C2C=CC(=[N+](CC)Cc3cccc(S(=O)(=O)O)c3)C=C2)c2ccc(N(CC)Cc3cccc(S(=O)(=O)O)c3)cc2)cc1	30.3% (inactive)
COC(=O)[C@H]1[C@H]2C[C@@H]3c4[nH]c5cc(OC)ccc5c4CCN3C[C@H]2C[C@@H](OC(=O)/C=C/c2cc(OC)c(OC)c(OC)c2)[C@@H]1OC	109% (inactive)

Query molecule follows.
INPUT: Read the entry COc1cc(/C=C/C(=O)c2c(C)n([O-])c3ccc(Cl)cc3[n+]2=O)cc(OC)c1OC and write its reported growth.
OUTPUT: 84% (inactive)

Origin of the recorded values: PubChem BioAssay (NCI)
